# measurement_target: BRD4 (Homo sapiens (Human))
# test_details: Binding inhibitory test of acetylated histone H4 and BRD4 (TR-FRET)
# study_conditions: CHO cell lysate with Flag-BRD4, biotin-labeled acetylated histone H4 peptide
Task for the reader: assign each of the following compounds its reported IC50.
Form entry: value (nM) — number only.

Query string: Look up IC50: Cc1sc2c(c1C)C(c1ccc(Cl)cc1)=NC(CC(=O)Nc1ccc(N)cc1)c1nnc(C)n1-2 (stereo not drawn) [compound 15]
Result string: 120

Query string: Look up IC50: CONC(=O)C[C@@H]1N=C(c2ccc(Cl)cc2)c2c(sc(C)c2C)-n2c(C)nnc21 [compound 17]
Result string: 12.8

Query string: Look up IC50: COc1ncccc1NC(=O)C[C@@H]1N=C(c2ccc(Cl)cc2)c2c(sc(C)c2C)-n2c(C)nnc21 [compound 18]
Result string: 147

Query string: Look up IC50: CCOC(=O)C[C@@H]1N=C(c2ccc(N(C)c3ccc(F)cc3)cc2)c2c(sc(C)c2C)-n2c(C)nnc21 [compound 11]
Result string: 225

Query string: Look up IC50: COC(=O)C[C@@H]1N=C(c2ccc(-c3ccc(OC)cc3)cc2)c2c(sc(CO)c2C)-n2c(C)nnc21 [compound 7]
Result string: 113

Query string: Look up IC50: COC(=O)C[C@@H]1N=C(c2ccc(NCc3ccccc3)cc2)c2c(sc(C)c2C)-n2c(C)nnc21 [compound 9]
Result string: 73.6

Query string: Look up IC50: COC(=O)C[C@@H]1N=C(c2ccc(Cl)cc2)c2c(sc(Cl)c2C)-n2c(C)nnc21 [compound 5]
Result string: 54.2

Query string: Look up IC50: CCOC(=O)C[C@@H]1N=C(c2ccc(Nc3cccnc3)cc2)c2c(sc(C)c2C)-n2c(C)nnc21 [compound 3]
Result string: 54.9

Query string: Look up IC50: CNC(=O)CC1N=C(c2ccc(Cl)cc2)c2c(sc(C)c2C)-n2c(C)nnc21 (stereo not drawn) [compound 13]
Result string: 17.3

Query string: Look up IC50: COc1ccc(NC(=O)C[C@@H]2N=C(c3ccc(Cl)cc3)c3c(sc(C)c3C)-n3c(C)nnc32)cn1 [compound 16]
Result string: 116

Query string: Look up IC50: COC(=O)C[C@@H]1N=C(c2ccc(Nc3c(F)cc(F)cc3F)cc2)c2c(sc(CO)c2C)-n2c(C)nnc21 [compound 4]
Result string: 77.2

Query string: Look up IC50: COC(=O)C[C@@H]1N=C(c2ccc(NC(=O)CCc3ccccc3)cc2)c2c(sc(C)c2C)-n2c(C)nnc21 [compound 10]
Result string: 47.1

Query string: Look up IC50: Cc1sc2c(c1C)C(c1ccc(Cl)cc1)=NC(CC(=O)Nc1cccnc1)c1nnc(C)n1-2 (stereo not drawn) [compound 12]
Result string: 108

Query string: Look up IC50: COC(=O)C[C@@H]1N=C(c2ccc(Cl)cc2)c2c(sc(C)c2C)-n2c(C)nnc21 [compound 6]
Result string: 18.2

Query string: Look up IC50: COC(=O)C[C@@H]1N=C(c2ccc(-c3cccc(C#N)c3)cc2)c2c(sc(C)c2C)-n2c(C)nnc21 [Compound 2]
Result string: 121

###

# Test system: MV4-11
# test_details: Growth suppressive activity test against cancer cells (WST-8), MV4-11
# Assay type: cell-based, human
# study_conditions: MV4-11, 3 days culture, read-out: growth suppressive activity on MV4-11 GI50
// returns -1 unless GI50 is strictly below 30 nM, in which case 1

Query string: Hello, I'm reviewing records and need to know if GI50 of COC(=O)C[C@@H]1N=C(c2ccc(Cl)cc2)c2c(sc(Cl)c2C)-n2c(C)nnc21 is below 30 nM. Could you check?
Result string: -1

Query string: Hello, I'm reviewing records and need to know if GI50 of COC(=O)C[C@@H]1N=C(c2ccc(-c3ccc(OC)cc3)cc2)c2c(sc(CO)c2C)-n2c(C)nnc21 is below 30 nM. Could you check?
Result string: -1

Query string: Hello, I'm reviewing records and need to know if GI50 of COC(=O)C[C@@H]1N=C(c2ccc(Cl)cc2)c2c(sc(C)c2C)-n2c(C)nnc21 is below 30 nM. Could you check?
Result string: 1

Query string: Hello, I'm reviewing records and need to know if GI50 of COc1ncccc1NC(=O)C[C@@H]1N=C(c2ccc(Cl)cc2)c2c(sc(C)c2C)-n2c(C)nnc21 is below 30 nM. Could you check?
Result string: -1

Query string: Hello, I'm reviewing records and need to know if GI50 of CCOC(=O)C[C@@H]1N=C(c2ccc(Nc3cccnc3)cc2)c2c(sc(C)c2C)-n2c(C)nnc21 is below 30 nM. Could you check?
Result string: 1

Query string: Hello, I'm reviewing records and need to know if GI50 of CNC(=O)CC1N=C(c2ccc(Cl)cc2)c2c(sc(C)c2C)-n2c(C)nnc21 (centres unmarked) is below 30 nM. Could you check?
Result string: 1

Query string: Hello, I'm reviewing records and need to know if GI50 of Cc1sc2c(c1C)C(c1ccc(Cl)cc1)=NC(CC(=O)NCCO)c1nnc(C)n1-2 (centres unmarked) is below 30 nM. Could you check?
Result string: -1

Query string: Hello, I'm reviewing records and need to know if GI50 of CONC(=O)C[C@@H]1N=C(c2ccc(Cl)cc2)c2c(sc(C)c2C)-n2c(C)nnc21 is below 30 nM. Could you check?
Result string: 1

Query string: Hello, I'm reviewing records and need to know if GI50 of COc1ccc(NC(=O)C[C@@H]2N=C(c3ccc(Cl)cc3)c3c(sc(C)c3C)-n3c(C)nnc32)cn1 is below 30 nM. Could you check?
Result string: 1

Query string: Hello, I'm reviewing records and need to know if GI50 of COC(=O)C[C@@H]1N=C(c2ccc(Nc3c(F)cc(F)cc3F)cc2)c2c(sc(CO)c2C)-n2c(C)nnc21 is below 30 nM. Could you check?
Result string: -1

Query string: Hello, I'm reviewing records and need to know if GI50 of Cc1sc2c(c1C)C(c1ccc(Cl)cc1)=NC(CC(=O)Nc1ccc(N)cc1)c1nnc(C)n1-2 (centres unmarked) is below 30 nM. Could you check?
Result string: -1

Query string: Hello, I'm reviewing records and need to know if GI50 of CCOC(=O)C[C@@H]1N=C(c2ccc(N(C)c3ccc(F)cc3)cc2)c2c(sc(C)c2C)-n2c(C)nnc21 is below 30 nM. Could you check?
Result string: -1

Query string: Hello, I'm reviewing records and need to know if GI50 of COC(=O)C[C@@H]1N=C(c2ccc(NCc3ccccc3)cc2)c2c(sc(C)c2C)-n2c(C)nnc21 is below 30 nM. Could you check?
Result string: -1
